- Test system: Coxsackievirus B3
- protocol: Antiviral activity against wild type Coxsackievirus B3 97927 infected in human HeLa cell line assessed as inhibition of virus-induced cytopathic effect measured after 48 hrs by crystal violet uptake assay
- Type: functional, organism-based
- condition.info: Enterovirus B, 97927, HeLa, 48 h; read-out: IC50
Task for the reader: assign each of the following compounds its reported IC50.
Numbers only, in nM.

Completed entries (count: 5):
CNC(=O)c1cc(CCCOc2c(C)cc(-c3noc(C(F)(F)F)n3)cc2C)on1; 60
CCOC(=O)c1cc(CCCOc2ccc(-c3noc(C(F)(F)F)n3)cc2C)on1; 62
CCOC(=O)c1cc(CCCOc2ccc(-c3noc(C(F)(F)F)n3)cc2OC)on1; 490
CN(C)C(=O)c1cc(CCCOc2ccc(-c3noc(C(F)(F)F)n3)cc2N)on1; 4470
Cc1cc(-c2noc(C(F)(F)F)n2)cc(C)c1OCCCc1cc(C(=O)OC(C)C)no1; 190

Lab note: each compound below needs its IC50 filled in.
1. CN(C)C(=O)c1cc(CCCOc2ccc(-c3noc(C(F)(F)F)n3)cc2F)on1
2. CNC(=O)c1cc(CCCOc2ccc(-c3noc(C(F)(F)F)n3)cc2C(F)(F)F)on1
3. CCOC(=O)c1cc(CCCOc2ccc(-c3noc(C(F)(F)F)n3)cc2[N+](=O)[O-])on1

**A:**
25
20
148
